// data source = patent US10670605B2

target: cysteines in MDA-MB-231 and Ramos cells (Homo sapiens, UniProt P48643); experiment: Competitive isoTOP-ABPP in situ (fragment-treated cells); type: cell-based; conditions: 200 μM, insitu, 231
Sequence (P48643 whole entry, the tested form may be a part): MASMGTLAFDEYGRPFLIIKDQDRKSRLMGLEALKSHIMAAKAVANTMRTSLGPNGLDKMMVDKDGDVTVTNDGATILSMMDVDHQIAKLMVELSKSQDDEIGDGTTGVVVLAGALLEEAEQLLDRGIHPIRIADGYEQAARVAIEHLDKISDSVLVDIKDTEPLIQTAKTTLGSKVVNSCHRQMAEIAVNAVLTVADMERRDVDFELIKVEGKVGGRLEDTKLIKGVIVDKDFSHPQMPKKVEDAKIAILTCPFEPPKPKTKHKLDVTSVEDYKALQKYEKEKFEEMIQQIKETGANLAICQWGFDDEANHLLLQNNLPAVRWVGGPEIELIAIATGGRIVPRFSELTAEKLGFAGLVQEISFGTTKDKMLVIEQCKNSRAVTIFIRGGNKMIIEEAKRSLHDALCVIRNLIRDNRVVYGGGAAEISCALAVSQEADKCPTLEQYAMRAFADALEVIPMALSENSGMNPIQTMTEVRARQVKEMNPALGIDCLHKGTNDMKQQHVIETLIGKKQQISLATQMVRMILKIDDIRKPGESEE
Form field: isoTOP-ABPP ratio P48643_C253 (one value per entry).
Respond with the number and no other words.

Sample records with isoTOP-ABPP ratio P48643_C253:
{"columns": ["molecule", "tested-system", "isoTOP-ABPP ratio P48643_C253"],
 "data": [
  ["C=CC(=O)N(Cc1cccnc1)c1cc(C(F)(F)F)cc(C(F)(F)F)c1 [compound 31]", "cysteines in MDA-MB-231 and Ramos cells (Homo sapiens, UniProt P48643)", 0.5],
  ["O=C(CCl)Nc1cccc2ncccc12 [compound 51]", "cysteines in MDA-MB-231 and Ramos cells (Homo sapiens, UniProt P48643)", 0.8],
  ["CC1CCc2ccccc2N1C(=O)CCl (stereo not shown) [compound 45]", "cysteines in MDA-MB-231 and Ramos cells (Homo sapiens, UniProt P48643)", 1.2],
  ["C=CC(=O)Nc1cc(F)c(N2CCN(C(=O)OC(C)(C)C)CC2)c(F)c1 [compound 38]", "cysteines in MDA-MB-231 and Ramos cells (Homo sapiens, UniProt P48643)", 1.1],
  ["COc1ccccc1OCCNC(=O)CCl [compound 28]", "cysteines in MDA-MB-231 and Ramos cells (Homo sapiens, UniProt P48643)", 0.8]
]}

Data request: Report isoTOP-ABPP ratio P48643_C253 for O=C(CCl)NC(=O)NC12CC3CC(CC(C3)C1)C2 [compound 12] tested on cysteines in MDA-MB-231 and Ramos cells (Homo sapiens, UniProt P48643).
Data returned: 5.1

Data request: Write down the reported isoTOP-ABPP ratio P48643_C253 of Cc1ccc(C=C(C#N)C(=O)NCCN2CCOCC2)cc1 [compound 41] , test system: cysteines in MDA-MB-231 and Ramos cells (Homo sapiens, UniProt P48643).
Data returned: 0.8
